Values compiled from patent US20210130436A1.

studySystem: T1, human CTLA4 (CTLA-4), full-length, on CHO cells (human, UniProt P16410 36-223)
T1 construct: also called huCTLA4
T1 sequence (P16410 36-223): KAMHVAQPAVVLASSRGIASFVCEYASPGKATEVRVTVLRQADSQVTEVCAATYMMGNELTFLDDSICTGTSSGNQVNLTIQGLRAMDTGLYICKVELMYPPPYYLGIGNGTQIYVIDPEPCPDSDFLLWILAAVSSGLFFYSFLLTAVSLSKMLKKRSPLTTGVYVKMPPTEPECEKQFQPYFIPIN
procedureSummary: flow cytometry, CHO cells stably expressing CTLA4
Measured MFI at 33.3 nM, listed per entry for reference.
parameterMeasured: MFI at 33.3 nM (MFI)

binder	parameterMeasured	experimentalResult
variant CD80 IgV-Fc E35D/M47L (Fc fusion, not shown: small tags and cut ends; a dimerising Fc or GST) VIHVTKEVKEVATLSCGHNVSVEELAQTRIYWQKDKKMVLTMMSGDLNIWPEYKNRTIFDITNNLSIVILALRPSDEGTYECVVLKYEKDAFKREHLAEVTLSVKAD	MFI at 33.3 nM	48000
variant CD80 IgV-Fc E35D/D46V/V68M/L85Q (Fc fusion, not shown: small tags and cut ends; a dimerising Fc or GST) VIHVTKEVKEVATLSCGHNVSVEELAQTRIYWQKDKKMVLTMMSGVMNIWPEYKNRTIFDITNNLSIMILALRPSDEGTYECVVQKYEKDAFKREHLAEVTLSVKAD	MFI at 33.3 nM	32200
variant CD80 IgV-Fc D46V/V68M/L85Q (Fc fusion, not shown: small tags and cut ends; a dimerising Fc or GST) VIHVTKEVKEVATLSCGHNVSVEELAQTRIYWQKEKKMVLTMMSGVMNIWPEYKNRTIFDITNNLSIMILALRPSDEGTYECVVQKYEKDAFKREHLAEVTLSVKAD	MFI at 33.3 nM	7570
variant CD80 IgV-Fc M47V (Fc fusion, not shown: small tags and cut ends; a dimerising Fc or GST) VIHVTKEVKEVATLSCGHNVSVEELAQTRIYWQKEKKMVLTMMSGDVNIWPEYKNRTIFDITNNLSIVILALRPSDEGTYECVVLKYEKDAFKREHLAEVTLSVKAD	MFI at 33.3 nM	33300
variant CD80 IgV-Fc E35D/D46V/M47L (Fc fusion, not shown: small tags and cut ends; a dimerising Fc or GST) VIHVTKEVKEVATLSCGHNVSVEELAQTRIYWQKDKKMVLTMMSGVLNIWPEYKNRTIFDITNNLSIVILALRPSDEGTYECVVLKYEKDAFKREHLAEVTLSVKAD	MFI at 33.3 nM	45000
variant CD80 IgV-Fc E35D/M47L/V68M/L85Q (Fc fusion, not shown: small tags and cut ends; a dimerising Fc or GST) VIHVTKEVKEVATLSCGHNVSVEELAQTRIYWQKDKKMVLTMMSGDLNIWPEYKNRTIFDITNNLSIMILALRPSDEGTYECVVQKYEKDAFKREHLAEVTLSVKAD	MFI at 33.3 nM	28100
variant CD80 IgV-Fc M47L (Fc fusion, not shown: small tags and cut ends; a dimerising Fc or GST) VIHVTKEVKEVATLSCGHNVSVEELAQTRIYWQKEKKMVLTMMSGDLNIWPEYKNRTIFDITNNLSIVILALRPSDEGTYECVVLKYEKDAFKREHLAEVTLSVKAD	MFI at 33.3 nM	30800
variant CD80 IgV-Fc D46V/M47L/L85Q (Fc fusion, not shown: small tags and cut ends; a dimerising Fc or GST) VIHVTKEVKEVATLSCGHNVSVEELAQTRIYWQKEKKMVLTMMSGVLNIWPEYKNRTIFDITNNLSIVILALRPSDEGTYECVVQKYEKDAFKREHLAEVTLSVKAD	MFI at 33.3 nM	40200
